Source: patent US5451599A

Below, each entry is listed alongside its reported Percentage of living cells /P %/.
# System: HEp-2 (larynx cancer cells)
# Assay explanation: 48 h incubation with the salts: cell fluorescence, living cells, multiplication coefficient (Table 3)
# Format: cell-based, Human
# Study conditions: 48 hs, 50 mcg/ml
Quick reminder: number only, in %, skip the unit.

Compound	Unit tag	Percentage of living cells /P %/
CC1=C(CCC(=O)O)c2cc3[nH]c(cc4nc(cc5[nH]c(cc1n2)c(C(C)NC(CCCCN)C(=O)O)c5C)C(C(C)NC(CCCCN)C(=O)O)=C4C)c(C)c3CCC(=O)O.N=C(N)NCCC[C@H](N)C(=O)O.N=C(N)NCCC[C@H](N)C(=O)O (stereo not drawn) [PP/Lys/2 /Arg/2, l-arginine di/N-lysyl/-protoporphyrinate]	%	10
CC1=C(CCC(=O)O)c2cc3[nH]c(cc4nc(cc5[nH]c(cc1n2)c(C(C)NC(Cc1c[nH]c2ccccc12)C(=O)O)c5C)C(C(C)NC(Cc1c[nH]c2ccccc12)C(=O)O)=C4C)c(C)c3CCC(=O)O.N=C(N)NCCC[C@H](N)C(=O)O.N=C(N)NCCC[C@H](N)C(=O)O (stereo not drawn)	%	15
CC1=C(CCC(=O)O)c2cc3[nH]c(cc4nc(cc5[nH]c(cc1n2)c(C(C)NC(Cc1ccccc1)C(=O)O)c5C)C(C(C)NC(Cc1ccccc1)C(=O)O)=C4C)c(C)c3CCC(=O)O.N=C(N)NCCC[C@H](N)C(=O)O.N=C(N)NCCC[C@H](N)C(=O)O (stereo not drawn)	%	3
CC1=C(CCC(=O)O)c2cc3[nH]c(cc4nc(cc5[nH]c(cc1n2)c(C(C)NC(CCC(=O)O)C(=O)O)c5C)C(C(C)NC(CCC(=O)O)C(=O)O)=C4C)c(C)c3CCC(=O)O.N=C(N)NCCC[C@H](N)C(=O)O.N=C(N)NCCC[C@H](N)C(=O)O (stereo not drawn)	%	15

Below: the item to evaluate.
What value of measured Percentage of living cells /P %/ is listed for CSCCC(NC(C)C1=C(C)c2cc3[nH]c(cc4nc(cc5[nH]c(cc1n2)c(C)c5C(C)NC(CCSC)C(=O)O)C(C)=C4CCC(=O)O)c(CCC(=O)O)c3C)C(=O)O.N=C(N)NCCC[C@H](N)C(=O)O.N=C(N)NCCC[C@H](N)C(=O)O (stereo not drawn) ?
0
